Origin of values: paper PMC4336329

The entries below come with measured hERG current change (%, negative = inhibition) at 1uM values attached.
- subject.of.test: human ether-à-go-go-related gene (hERG) potassium channel (human, UniProt Q12809)
- Sequence (Q12809 whole entry, looked up): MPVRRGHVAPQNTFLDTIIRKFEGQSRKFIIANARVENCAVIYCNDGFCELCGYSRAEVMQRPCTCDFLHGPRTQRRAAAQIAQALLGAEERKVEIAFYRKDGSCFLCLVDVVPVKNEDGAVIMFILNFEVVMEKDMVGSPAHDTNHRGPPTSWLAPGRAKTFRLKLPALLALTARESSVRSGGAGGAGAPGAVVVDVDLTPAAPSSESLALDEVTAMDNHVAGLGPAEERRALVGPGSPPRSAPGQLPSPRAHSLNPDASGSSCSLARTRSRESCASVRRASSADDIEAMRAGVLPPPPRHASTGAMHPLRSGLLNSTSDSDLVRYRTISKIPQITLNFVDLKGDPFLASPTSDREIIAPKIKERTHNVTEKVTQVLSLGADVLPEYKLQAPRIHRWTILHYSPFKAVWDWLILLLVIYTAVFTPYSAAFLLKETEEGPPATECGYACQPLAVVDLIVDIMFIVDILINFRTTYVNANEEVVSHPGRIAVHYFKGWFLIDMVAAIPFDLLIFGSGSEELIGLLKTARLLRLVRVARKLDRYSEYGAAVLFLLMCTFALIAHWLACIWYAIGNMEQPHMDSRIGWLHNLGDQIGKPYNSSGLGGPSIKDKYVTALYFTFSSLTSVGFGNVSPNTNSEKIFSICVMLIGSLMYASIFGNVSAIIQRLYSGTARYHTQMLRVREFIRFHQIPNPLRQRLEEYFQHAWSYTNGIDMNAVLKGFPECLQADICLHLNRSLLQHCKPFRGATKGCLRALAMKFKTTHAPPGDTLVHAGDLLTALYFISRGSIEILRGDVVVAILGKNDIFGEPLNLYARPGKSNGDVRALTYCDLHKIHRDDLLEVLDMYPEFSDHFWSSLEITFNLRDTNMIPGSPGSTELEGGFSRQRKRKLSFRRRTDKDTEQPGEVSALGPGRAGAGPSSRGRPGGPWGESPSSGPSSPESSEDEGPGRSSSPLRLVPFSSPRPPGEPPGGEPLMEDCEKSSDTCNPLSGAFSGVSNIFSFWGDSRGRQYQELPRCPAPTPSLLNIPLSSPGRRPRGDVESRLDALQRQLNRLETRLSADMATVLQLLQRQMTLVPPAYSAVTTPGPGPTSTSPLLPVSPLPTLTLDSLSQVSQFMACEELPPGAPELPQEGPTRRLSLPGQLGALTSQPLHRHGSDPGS
- procedure.details: primary screen, population patch clamp on CHO cells stably expressing hERG; higher = less effect of the substance
The campaign covered roughly 310,000 compounds. About 2,200 (0.71%) showed an effect of 50% or more. The effect is printed as a negative number. The sample as a whole holds a higher share of strong results than the screen did.
Quick reminder: number only, in %, skip the unit.

CN(C(=O)CSc1nc2cc(C(=O)O)ccc2c(=O)n1Cc1ccccc1)C1CCS(=O)(=O)C1 (centres unmarked) ... 17.6

Exercise: What value of hERG current change (%, negative = inhibition) at 1uM has been reported for the following compound? CCc1cc2c(=O)n(Cc3ccco3)c(SCC(=O)N(C)C3CCS(=O)(=O)C3)nc2s1 (centres unmarked)
Solution: -85.4

Exercise: Could you share which hERG current change (%, negative = inhibition) at 1uM value was measured for COCCn1c(SCC(=O)N(C)C2CCS(=O)(=O)C2)nc2ccccc2c1=O (centres unmarked) ?
Solution: 4.99

Exercise: Consider the compound CCc1cc2c(SCC(=O)N(C)C3CCS(=O)(=O)C3)ncnc2s1 (centres unmarked) and give its measured hERG current change (%, negative = inhibition) at 1uM.
Solution: -7.21

Exercise: Bench note: what hERG current change (%, negative = inhibition) at 1uM did CCc1cc2c(=O)n(Cc3ccco3)c(SCC(=O)NC3CCS(=O)(=O)C3)nc2s1 (centres unmarked) show?
Solution: -29.7
